assay: PK assay in rat (IV and PO); type: in vivo; details: plasma, SD rats, PO 5 mg/kg, read-out: AUClast po (area under plasma concentration-time curve, 0-24 h)
measured.property: AUC(0-t) (ng·h/mL)
Answers are plain numbers, in ng·h/mL.

Would you please look over these solved cases?
| test.smiles | quantitative.result |
| --- | --- |
| COc1cc2nccc(Oc3ccc(NC(=O)c4nn(C5CCOCC5)cc(-c5ccc(F)cc5)c4=O)nc3)c2cc1OC | 28000 |
| COc1cc2nccc(Oc3ccc(NC(=O)c4cn(C5CCOCC5)cc(-c5ccc(C)cc5)c4=O)nc3)c2cc1OC | 5450 |
| COc1cc2nccc(Oc3ccc(NC(=O)c4nn(C5CCOCC5)cc(-c5ccc(C)cc5)c4=O)nc3)c2cc1OC | 17200 |

Give measured AUC(0-t) for every item shown.
1. COc1cc2nccc(Oc3cnc(NC(=O)c4nn(C5CCOCC5)cc(-c5ccc(C)cc5)c4=O)nc3)c2cc1OC
2. COc1cc2nccc(Oc3ccc(NC(=O)c4nn(CC5CCOCC5)cc(-c5ccc(C)cc5)c4=O)nc3)c2cc1OC
3. COc1cc2nccc(Oc3ccc(NC(=O)c4cc(-c5ccc(C)cc5)cn(CC5CCOCC5)c4=O)nc3)c2cc1OC

Return:
1: 2600; 2: 6620; 3: 9790

====

test: PK assay in rat (IV and PO); assay type: in vivo; conditions: plasma, SD rats, PO 5 mg/kg, read-out: tz1/2 po (terminal half-life) (converted)
measured.property: half-life (h)
One number for each entry, in h.

Record excerpt, results attached:
| molecule | units.of.measure | quantitative.result |
| --- | --- | --- |
| COc1cc2nccc(Oc3ccc(NC(=O)c4nn(C5CCOCC5)cc(-c5ccc(C)cc5)c4=O)nc3)c2cc1OC [Compound 17] | h | 3.5 |
| COc1cc2nccc(Oc3ccc(NC(=O)c4nn(CC5CCOCC5)cc(-c5ccc(C)cc5)c4=O)nc3)c2cc1OC [Compound 2] | h | 3.14 |
| COc1cc2nccc(Oc3ccc(NC(=O)c4cc(-c5ccc(C)cc5)cn(CC5CCOCC5)c4=O)nc3)c2cc1OC [Compound 13] | h | 8.12 |
| COc1cc2nccc(Oc3ccc(NC(=O)c4nn(C5CCOCC5)cc(-c5ccc(F)cc5)c4=O)nc3)c2cc1OC [Compound 34] | h | 4.56 |
| COc1cc2nccc(Oc3ccc(NC(=O)c4cn(C5CCOCC5)cc(-c5ccc(C)cc5)c4=O)nc3)c2cc1OC [Compound 19] | h | 2.56 |

Moving on to another molecule below.
Noted for COc1cc2nccc(Oc3cnc(NC(=O)c4nn(C5CCOCC5)cc(-c5ccc(C)cc5)c4=O)nc3)c2cc1OC [Compound 18] : its half-life reads 1.17

====

experiment: PK assay in rat (IV and PO); type: in vivo; conditions: plasma, SD rats, IV 1 mg/kg, read-out: Vz_obs iv (apparent volume of distribution)
Where Vd equals or exceeds 1 L/kg, the correct label is TRUE; where it does not, the label is FALSE.

| test.smiles | class.name |
| --- | --- |
| COc1cc2nccc(Oc3ccc(NC(=O)c4nn(C5CCOCC5)cc(-c5ccc(F)cc5)c4=O)nc3)c2cc1OC | FALSE |
| COc1cc2nccc(Oc3ccc(NC(=O)c4cn(C5CCOCC5)cc(-c5ccc(C)cc5)c4=O)nc3)c2cc1OC | TRUE |
| COc1cc2nccc(Oc3cnc(NC(=O)c4nn(C5CCOCC5)cc(-c5ccc(C)cc5)c4=O)nc3)c2cc1OC | FALSE |

Enquiry: Quick check, Vd >= 1 L/kg? COc1cc2nccc(Oc3ccc(NC(=O)c4nn(C5CCOCC5)cc(-c5ccc(C)cc5)c4=O)nc3)c2cc1OC
Return: TRUE

Enquiry: Threshold query (Vd >= 1 L/kg) on COc1cc2nccc(Oc3ccc(NC(=O)c4cc(-c5ccc(C)cc5)cn(CC5CCOCC5)c4=O)nc3)c2cc1OC
Return: TRUE

Enquiry: Vd >= 1 L/kg for COc1cc2nccc(Oc3ccc(NC(=O)c4nn(CC5CCOCC5)cc(-c5ccc(C)cc5)c4=O)nc3)c2cc1OC ?
Return: TRUE

Cited source: patent US20210177828A1
